- Subject Of Test: Kras and SOS1 (biotin-tagged human Kras loaded with GDP, His-tagged human SOS1) (Homo sapiens, UniProt P01116, G12D)
- Construct: made in house; host or cells: E. coli (stated for Kras only)
- Sequence (P01116 1-188 isoform P01116-2 G12D): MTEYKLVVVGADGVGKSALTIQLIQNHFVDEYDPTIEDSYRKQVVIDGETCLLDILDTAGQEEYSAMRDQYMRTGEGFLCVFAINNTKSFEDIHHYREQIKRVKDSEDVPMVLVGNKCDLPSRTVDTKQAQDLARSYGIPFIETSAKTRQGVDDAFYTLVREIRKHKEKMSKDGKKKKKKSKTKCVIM
- Assay Details: Protein-protein interaction inhibition between Kras and SOS1 (KrasGl2D-SOS PPI) using AlphaScreen
- Format: binding
- Applied Conditions: AlphaScreen; biotin-tagged human Kras loaded with GDP, His-tagged human SOS1; read-out: KRAS G12D-SOS PPI IC50
Starred links: 1 amine or outer side, 2 acyl side, 3 side chain; linkers in the order of their positions; H or OH if unused. Positions of bridges follow the written chain, without caps; N, C: chain ends. Non-standard residues stand in square brackets, D forms with d. Residues, ends and D or L forms follow the SMILES beside them. *: point of attachment. X35 = CN([C@@](C)(Cc1ccccc1)C(=O)[*:2])[*:1]; Phe(3-I) = N[C@@H](Cc1cccc(I)c1)C(=O)O; NMeY = CN[C@@H](Cc1ccc(O)cc1)C(=O)O; NMeD = CN[C@@H](CC(=O)O)C(=O)O; NMeL = CN[C@@H](CC(C)C)C(=O)O; Nle = CCCC[C@H](N)C(=O)O; Piperidide = C1CCN(*)CC1; Aze = O=C(O)[C@@H]1CCN1; Sar = CNCC(=O)O
Recorded Endpoint: pIC50
By convention, pIC50 is the negative base-10 log of a molar concentration.

[Q] Any idea what pIC50 was measured for CCCC[C@@H]1NC(=O)[C@H](Cc2cccc(I)c2)NC(=O)CN(C)C(=O)[C@H](Cc2ccc(OC)cc2)N(C)C(=O)[C@@H]2CCN2C(=O)CN(C)C(=O)[C@H]([C@@H](C)CC)NC(=O)[C@H](CC(C)C)N(C)C(=O)C[C@@H](C(=O)N2CCCCC2)N(C)C(=O)[C@H](CC(C)C)NC(=O)[C@](C)(Cc2ccccc2)N(C)C1=O [Compound 1058] ([NMeL]I[Sar][Aze][NMeY](Me)[Sar][Phe(3-I)][Nle][X35]L[NMeD]-Piperidide; lactam N-11) ?
[A] 7.85

* * *

- Subject Of Test: Kras and SOS1 (biotin-tagged human Kras loaded with GDP, His-tagged human SOS1) (Homo sapiens, UniProt P01116, G12D)
- Construct: made in house; host or cells: E. coli (stated for Kras only)
- Assay Details: Protein-protein interaction inhibition between Kras and SOS1 (KrasGl2D-SOS PPI) using AlphaScreen
- Format: binding
- Applied Conditions: AlphaScreen; biotin-tagged human Kras loaded with GDP, His-tagged human SOS1; read-out: KRAS G12D-SOS PPI IC50
- Description: Protein-Protein Interaction Inhibition Between Kras and SOS1 (KrasGl2D-SOS PPI) Using AlphaScreen Protein-protein interaction inhibition (PPI) between Kras and SOS1 was measured by energy transfer from nickel-conjugated donor beads to streptavidin-conjugated acceptor beads using biotin-tagged human Kras expressed in E. coli and loaded with GDP after purification and His-tagged human SOS1 enzyme. […]
Starred links: 1 amine or outer side, 2 acyl side, 3 side chain; linkers in the order of their positions; H or OH if unused. Positions of bridges follow the written chain, without caps; N, C: chain ends. Non-standard residues stand in square brackets, D forms with d. Residues, ends and D or L forms follow the SMILES beside them. *: point of attachment. hPhe(3-Cl-4-CF3) = N[C@@H](CCc1ccc(C(F)(F)F)c(Cl)c1)C(=O)O; NMePhe(4-CF3) = CN[C@@H](Cc1ccc(C(F)(F)F)cc1)C(=O)O; 3Oxa8azabicyclo(3.2.1)octane = C1CC2COCC1N2*; hPhe(4-Cl) = N[C@@H](CCc1ccc(Cl)cc1)C(=O)O; NMedβ3hAla = C[C@H](CC(=O)[*:2])N(C)[*:1]; NMeGly(cPent) = CN[C@H](C(=O)O)C1CCCC1; Pro(4,4-F2) = O=C(O)[C@@H]1CC(F)(F)CN1; NMeCha = CN[C@@H](CC1CCCCC1)C(=O)O; NMehLeu = CN[C@@H](CCC(C)C)C(=O)O; NMeChg = CN[C@H](C(=O)O)C1CCCCC1; NMeI = CC[C@H](C)[C@H](NC)C(=O)O; NMeD = CN[C@@H](CC(=O)O)C(=O)O; dNMeD = CN[C@H](CC(=O)O)C(=O)O; NMeL = CN[C@@H](CC(C)C)C(=O)O; NMeNva = CCC[C@H](NC)C(=O)O; d(β3hA) = C[C@@H](N)CC(=O)O; NMeA = CN[C@@H](C)C(=O)O; Piperidide = C1CCN(*)CC1; Pyrrolidide = C1CCN(*)C1; Ac5c = NC1(C(=O)O)CCCC1; Aze = O=C(O)[C@@H]1CCN1; Sar = CNCC(=O)O
For each of the compounds below, state its pIC50.
Please note pIC50 is a logarithmic value: minus log10 of concentration in mol/L. Answer with that number alone.

[Q] Entry CC[C@H](C)[C@@H]1NC(=O)[C@H](CC(C)C)N(C)C(=O)C[C@@H](C)N(C)C(=O)[C@H]([C@@H](C)CC)N(C)C(=O)C2(CCCC2)NC(=O)[C@@H]2CC(F)(F)CN2C(=O)[C@H](CCc2ccc(C(F)(F)F)c(Cl)c2)NC(=O)CN(C)C(=O)[C@H](Cc2ccc(C(F)(F)F)cc2)N(C)C(=O)CN(C)C(=O)CN(C)C1=O [Compound 1003] (cyclo([Ac5c][NMeI][NMedβ3hAla][NMeL]I[Sar][Sar][NMePhe(4-CF3)][Sar][hPhe(3-Cl-4-CF3)][Pro(4,4-F2)])) : reported pIC50 = ?
[A] 8.08

[Q] Same lookup for CCC[C@H]1C(=O)N[C@@H]([C@@H](C)CC)C(=O)N(C)[C@@H](C)C(=O)N2CC[C@H]2C(=O)N(C)[C@@H](CC2CCCCC2)C(=O)N(C)CC(=O)N[C@@H](CCc2ccc(C(F)(F)F)c(Cl)c2)C(=O)N2CCC[C@H]2C(=O)NC2(CCCC2)C(=O)N(C)[C@@H](C2CCCC2)C(=O)N(C)[C@H](C(=O)N2CCCCC2)CC(=O)N1C [Compound 391] ([NMeNva]I[NMeA][Aze][NMeCha][Sar][hPhe(3-Cl-4-CF3)]P[Ac5c][NMeGly(cPent)][NMeD]-Piperidide; lactam N-11) , please.
[A] 9.40

[Q] Likewise for CC[C@H](C)[C@@H]1NC(=O)[C@H](CC(C)C)N(C)C(=O)C[C@H](C(=O)N2CCCC2)N(C)C(=O)[C@H](C2CCCCC2)N(C)C(=O)C2(CCCC2)NC(=O)[C@@H]2CCCN2C(=O)[C@H](CCc2ccc(C(F)(F)F)c(Cl)c2)NC(=O)CN(C)C(=O)[C@H](CC2CCCCC2)N(C)C(=O)CN(C)C(=O)CN(C)C1=O [Compound 1781] ([NMeL]I[Sar][Sar][NMeCha][Sar][hPhe(3-Cl-4-CF3)]P[Ac5c][NMeChg][dNMeD]-Pyrrolidide; lactam N-11) ?
[A] 7.31

[Q] Subsequent entry: CC[C@H](C)[C@@H]1NC(=O)[C@H](CC(C)C)N(C)C(=O)C[C@@H](C(=O)N2C3CCC2COC3)N(C)C(=O)[C@H](C2CCCCC2)N(C)C(=O)C2(CCCC2)NC(=O)[C@@H]2CCCN2C(=O)[C@H](CCc2ccc(Cl)cc2)NC(=O)CN(C)C(=O)[C@H](CC2CCCCC2)N(C)C(=O)CN(C)C(=O)CN(C)C1=O [Compound 1950] ([NMeL]I[Sar][Sar][NMeCha][Sar][hPhe(4-Cl)]P[Ac5c][NMeChg][NMeD]-{3Oxa8azabicyclo(3.2.1)octane}; lactam N-11)
[A] 8.55

[Q] Proceed to CC[C@H](C)[C@@H]1NC(=O)[C@H](CC(C)C)N(C)C(=O)C[C@@H](C)NC(=O)[C@H](CCC(C)C)N(C)C(=O)C2(CCCC2)NC(=O)[C@@H]2CCCN2C(=O)[C@H](CCc2ccc(C(F)(F)F)c(Cl)c2)NC(=O)CN(C)C(=O)[C@H](CC2CCCCC2)N(C)C(=O)CN(C)C(=O)CN(C)C1=O [Compound 586] (cyclo([Ac5c][NMehLeu][d(β3hA)][NMeL]I[Sar][Sar][NMeCha][Sar][hPhe(3-Cl-4-CF3)]P))
[A] 6.80
